# test details: BSK_4H_SRB: Viability Assessment in the BioMAP Diversity Plus: 4H Assay (AID 2283027);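 also: cells exposed to compound for 24 h before staining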
# condition summary: primary human endothelial cells (HUVEC)
The source made the active and inactive calls. The calls were made as follows: active = hit-call score of the fitted dose curve at least 0.9, where 1 is the maximum; inactive = score below 0.9.
Mark one answer only. Choices: active, inactive

INPUT: Check the results log: what was the call for `ClC(Cl)=C(Cl)C(Cl)=C(Cl)Cl` ?
OUTPUT: active

INPUT: Check the results log: what was the call for `ClCC(Cl)CCl` ?
OUTPUT: inactive

INPUT: Check the results log: what was the call for `CCCCCCCCC(=O)NCc1ccc(O)c(OC)c1` ?
OUTPUT: active

INPUT: Check the results log: what was the call for `COC(=O)c1sccc1S(=O)(=O)NC(=O)Nc1nc(C)nc(OC)n1` ?
OUTPUT: inactive

INPUT: Check the results log: what was the call for `CCC(C)(C)c1ccc(O)c(C(C)(C)CC)c1` ?
OUTPUT: active

INPUT: Check the results log: what was the call for `Oc1cccc2cccnc12` ?
OUTPUT: inactive

INPUT: Check the results log: what was the call for `CCOP(=S)(OCC)SCSP(=S)(OCC)OCC` ?
OUTPUT: inactive

INPUT: Check the results log: what was the call for CC(=O)OC(c1ccccc1)C(Cl)(Cl)Cl (configuration not stated) ?
OUTPUT: inactive

---

# measurement target: Heat shock factor protein 1 (Homo sapiens)
# test details: ATG_HSE_CIS: Attagene CIS-FACTORIAL HepG2 Assay for human Heat Shock Transcription Factor 1 (HSE) (AID 2282953)
# condition summary: HepG2 HSE cis-reporter, Attagene RNA transcription; actives raise or lower the signal
Calls of active or inactive are those of the source. How the source made its calls: active means hit-call score of the fitted dose curve at least 0.9, where 1 is the maximum; inactive means score below 0.9.
Mark one answer only. Choices: class 1 for active, class 0 for inactive

CCOP(=S)(OCC)Oc1nc(Cl)c(Cl)cc1Cl : class 0
O=C(Cl)c1ccc(Cl)cc1 : class 0
CC(=O)C(Cl)C(=O)N(C)C (centres undefined) : class 0

Pending compound:
INPUT: Check the results log: what was the call for `CCc1ccccc1N` ?
OUTPUT: class 0

---

# test details: ATG_ERE_CIS: Attagene CIS-FACTORIAL HepG2 Assay for Estrogen Response Element (ERE) (AID 2282940)
# condition summary: HepG2 ERE cis-reporter, Attagene RNA transcript; actives raise or lower the signal
Calls of active or inactive are those of the source. The calls were made as follows: active = hit-call score of the fitted dose curve at least 0.9, where 1 is the maximum; inactive = score below 0.9.
Mark one answer only. Choices: true = active, false = inactive

Examples with answers:
C=CC(=O)OCCCCCC(C)C : false
O=[N+]([O-])c1ccc2c3c(cccc13)CC2 : false
O=C(c1ccccc1)C(Cl)Cl : false
COP(=O)(OC)O/C(=C\Cl)c1cc(Cl)c(Cl)cc1Cl : true
CC(C)(C)c1cc(O)ccc1O : false
Cc1ccc(N)cc1Cl : false

INPUT: Check the results log: what was the call for `CCCCCCCCC(=O)NCc1ccc(O)c(OC)c1` ?
OUTPUT: false

INPUT: Check the results log: what was the call for CCC(C)c1cccc(C(C)CC)c1O (stereo not drawn) ?
OUTPUT: false

INPUT: Check the results log: what was the call for `O=C(Cl)c1ccc(Cl)cc1` ?
OUTPUT: false

INPUT: Check the results log: what was the call for `c1ccc(N=NNc2ccccc2)cc1` ?
OUTPUT: true

INPUT: Check the results log: what was the call for `CC(C)(OO)c1ccccc1` ?
OUTPUT: false

INPUT: Check the results log: what was the call for `CCOC(=O)CP(=O)(OCC)OCC` ?
OUTPUT: false

INPUT: Check the results log: what was the call for `Oc1c(I)cc(I)cc1I` ?
OUTPUT: false

---

# Read-out: Alkaline Phosphatase, Placental (ALPP) gene, ALPP (gene 250)
# test details: LTEA_HepaRG_ALPP: Life Technologies and Expression Analysis (LTEA) Assay for Alkaline Phosphatase, Placental (ALPP) gene using HepaRG (AID 2283468)
# condition summary: mRNA level, 48 h; actives raise or lower the signal
The source made the active and inactive calls. Rule for the calls: active = hit-call score of the fitted dose curve at least 0.9, where 1 is the maximum; inactive = score below 0.9.
Mark one answer only. Choices: active, inactive

O=C(Nc1ccc2[nH]ccc2c1)c1cc2cc(F)ccc2n1Cc1cccc(F)c1 : active
O=c1[nH]c(=O)[nH]c(=O)[nH]1 : inactive
C[C@]12CCC(=O)C[C@@H]1CC[C@@H]1[C@@H]2CC[C@]2(C)[C@@H](O)CC[C@@H]12 : inactive

INPUT: Check the results log: what was the call for `O=C(O)C(F)(F)C(F)(F)C(F)(F)C(F)(F)C(F)(F)C(F)(F)C(F)(F)C(F)(F)C(F)(F)C(F)(F)F` ?
OUTPUT: inactive

INPUT: Check the results log: what was the call for CCC(=O)C(CC(C)N(C)C)(c1ccccc1)c1ccccc1 (stereo not given) ?
OUTPUT: inactive

---

# Read-out: Vascular cell adhesion molecule 1 (VCAM1), VCAM1 (gene 7412)
# test details: BSK_4H_VCAM1: BioMAP Diversity Plus: 4H Assay for Vascular cell adhesion molecule 1 (VCAM1) Biomarker Activity (AID 2283033)
# condition summary: primary human endothelial cells (HUVEC); actives raise or lower the signal
The source made the active and inactive calls. The calls were made as follows: active = hit-call score of the fitted dose curve at least 0.9, where 1 is the maximum; inactive = score below 0.9.
Mark one answer only. Choices: true (1) = active, false (0) = inactive

Examples with answers:
CCOP(=S)(OCC)SCSP(=S)(OCC)OCC : false (0)
CCN1CCC2(CC1)COc1cc3c(cc12)N(C(=O)c1ccc(-c2ccc(-c4nnc(C)o4)cc2C)cc1)CC3 : true (1)
CCNc1nc(NC(C)(C)C)nc(SC)n1 : false (0)
CC(C)CCCCCCOC(=O)c1ccccc1C(=O)OCCCCCCC(C)C : false (0)
C=CC(=O)OCCCCCC(C)C : false (0)
CCOP(=S)(OCC)SCCS(=O)(=O)CC : false (0)

Pending compound:
INPUT: Check the results log: what was the call for `CN(C)N=O` ?
OUTPUT: false (0)

---

# test details: ATG_TAL_CIS: Attagene CIS-FACTORIAL HepG2 Assay for human TAL Basal Promoter (AID 2282966);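 also: background control endpoint measuring basal TAL promoter reporter mRNA not a specific factor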
# condition summary: HepG2 Attagene cis-factorial TAL promoter reporter; actives raise or lower the signal
# Description: ATG_CIS is a cell-based, multiplexed-readout assay that uses HepG2, a human liver cell line, with measurements taken at 24 hours after chemical dosing in a 24-well plate.ATG_TAL_CIS is one of 52 assay component(s) measured or calculated from the ATG_CIS assay. […] This assay endpoint, ATG_TAL_CIS, was analyzed with bidirectional fitting relative to DMSO as the negative control and baseline of activity. […]
Active and inactive are the calls of the source. Rule for the calls: active = hit-call score of the fitted dose curve at least 0.9, where 1 is the maximum; inactive = score below 0.9.
Mark one answer only. Choices: active, inactive

Examples with answers:
C=CC#N : inactive
COc1cc(OC)nc(NC(=O)NS(=O)(=O)c2ncccc2C(=O)N(C)C)n1 : inactive
C=CC(=O)OCCCCCC(C)C : inactive
CCCCC(CC)CO[N+](=O)[O-] (stereo not given) : inactive
NC(=S)Nc1ccccc1 : inactive

INPUT: Check the results log: what was the call for CC(C#N)CCC#N (stereo not given) ?
OUTPUT: inactive

INPUT: Check the results log: what was the call for `CC(=[OH+])/C=C(/C)[O-].CC(=[OH+])/C=C(/C)[O-].CC(=[OH+])/C=C(/C)[O-].[Fe]` ?
OUTPUT: inactive

INPUT: Check the results log: what was the call for CC1CN1P(=O)(N1CC1C)N1CC1C (stereo not given) ?
OUTPUT: inactive

INPUT: Check the results log: what was the call for `CCCCCCCCC(=O)NCc1ccc(O)c(OC)c1` ?
OUTPUT: inactive

INPUT: Check the results log: what was the call for CC(Br)C(=O)O (stereo not given) ?
OUTPUT: inactive

INPUT: Check the results log: what was the call for `N#CN=C(N)N` ?
OUTPUT: inactive

INPUT: Check the results log: what was the call for `COc1ccc(C=O)cc1` ?
OUTPUT: inactive

INPUT: Check the results log: what was the call for `ClCCBr` ?
OUTPUT: inactive

INPUT: Check the results log: what was the call for `ClCc1cccnc1` ?
OUTPUT: inactive

INPUT: Check the results log: what was the call for `COS(=O)(=O)c1ccc(C)cc1` ?
OUTPUT: inactive

INPUT: Check the results log: what was the call for `C1CCC(NC2CCCCC2)CC1` ?
OUTPUT: inactive

INPUT: Check the results log: what was the call for `O=C(O)Cc1ccccc1` ?
OUTPUT: inactive

INPUT: Check the results log: what was the call for `ClC1=C(Cl)[C@]2(Cl)[C@@H]3[C@@H](Cl)[C@@H](Cl)C[C@@H]3[C@@]1(Cl)C2(Cl)Cl` ?
OUTPUT: inactive

INPUT: Check the results log: what was the call for Fc1ccc(C2(Cn3cncn3)OC2c2ccccc2Cl)cc1 (stereo not given) ?
OUTPUT: inactive

INPUT: Check the results log: what was the call for `CCNc1nc(NC(C)(C)C)nc(SC)n1` ?
OUTPUT: inactive

INPUT: Check the results log: what was the call for `O=C(OC1CCCCC1)c1ccccc1C(=O)OC1CCCCC1` ?
OUTPUT: inactive

---

# Read-out: C-C motif chemokine 2 (Homo sapiens) (UniProt P13500)
# test details: BSK_KF3CT_MCP1: BioMAP Diversity Plus: KF3CT Assay for Monocyte Chemoattractant Protein 1 (MCP1/CCL2) Biomarker Activity (AID 2283073)
# condition summary: primary human keratinocytes with fibroblasts; actives raise or lower the signal
Activity calls are given as the source filed them. Rule for the calls: active = hit-call score of the fitted dose curve at least 0.9, where 1 is the maximum; inactive = score below 0.9.
experimental endpoint: outcome

COC(=O)Cc1ccccc1 : inactive
C=CC(=O)OCCCCCC(C)C : inactive
O=[N+]([O-])c1ccc(O)c([N+](=O)[O-])c1 : inactive
